molecular target: UniProt:Q99759; assay: radiometric filter-binding kinase assay, Kinase HotSpot; conditions: compound 0.5 µM; ATP 10 µM
Sequence (Q99759 whole entry, looked up): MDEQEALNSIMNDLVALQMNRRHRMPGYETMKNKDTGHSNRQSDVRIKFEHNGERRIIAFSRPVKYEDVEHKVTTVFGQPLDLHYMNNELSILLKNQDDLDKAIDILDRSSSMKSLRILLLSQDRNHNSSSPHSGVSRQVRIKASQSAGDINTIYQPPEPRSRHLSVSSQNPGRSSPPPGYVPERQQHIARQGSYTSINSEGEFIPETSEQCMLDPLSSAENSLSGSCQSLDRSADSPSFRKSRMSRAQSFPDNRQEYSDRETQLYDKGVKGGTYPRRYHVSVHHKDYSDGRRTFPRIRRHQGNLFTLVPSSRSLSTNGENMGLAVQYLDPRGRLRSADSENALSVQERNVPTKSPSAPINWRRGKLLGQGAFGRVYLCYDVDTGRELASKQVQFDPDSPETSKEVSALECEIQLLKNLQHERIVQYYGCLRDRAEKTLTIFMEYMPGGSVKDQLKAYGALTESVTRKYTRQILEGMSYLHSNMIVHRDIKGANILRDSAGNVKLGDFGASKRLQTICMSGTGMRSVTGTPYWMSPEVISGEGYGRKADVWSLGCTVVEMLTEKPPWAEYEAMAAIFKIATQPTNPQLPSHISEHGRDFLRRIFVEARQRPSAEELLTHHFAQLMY
Parameter measured: residual activity (%)
// return numeric value only (unit: %, not printed)

The following molecules have reported results that may help.
O=c1cc(N2CCNCC2)oc2c(-c3ccccc3)cccc12	109
COc1cc2nccc(Oc3ccc(NC(=S)NC(=O)c4ccccc4C)cc3)c2cc1OC	105
CC(C)n1cnc2c(Nc3cccc(Cl)c3)nc(NCCO)nc21	97.4

Here is another molecule to look at.
input: Requested read-out: residual activity. Entry: `Nc1nc(Nc2ccc(S(N)(=O)=O)cc2)nn1C(=O)c1c(F)cccc1F`
output: 27.5
